// provenance: PubChem BioAssay (NCI)

As shown below, each of these compounds has a reported GI50 value.
tested on: OVCAR-3 ovarian; experiment: NCI tumour cell line growth inhibition, 48 h

# example entries with known answers
COc1cc(NCc2ccccc2O)c2ncccc2c1
20.6 µM
CC(=O)c1cc2c(c3ccsc13)-c1ccccc1CC2
25.4 µM
C[C@@H](Oc1ccc2[nH]nc(/C=C/c3cnn(CCO)c3)c2c1)c1c(Cl)cncc1Cl
0.462 µM
COc1ccc(/C=C/C(=O)c2cc3c(N)c(C(=O)Nc4ccccc4C)sc3nc2C)cc1
0.168 µM
Cc1cc(C)n(C(=O)c2nn(-c3ccc(Cl)cc3)cc2O)n1
12.7 µM

Query GI50 on OVCAR-3 ovarian for O=C(Nc1cccc(O)c1)c1cccc(NC2=C(Cl)C(=O)N(Cc3ccccc3)C2=O)c1
8.16 µM

----------
system: MOLT-4 leukemia; assay: NCI tumour cell line growth inhibition, 48 h
measured_quantity: TGI

Reference set, count: 4
O=C(Nc1cccc(O)c1)c1cccc(NC2=C(Cl)C(=O)N(Cc3ccccc3)C2=O)c1
> 100 µM
COC(=O)C1(C2CC/C(C)=C/CC/C(C)=C/CC[C@@]3(C)O[C@@H]3C2)CC1 (stereo not given in full)
> 100 µM
Cc1cc(=O)oc2c(C)c3oc(CBr)c(Br)c3cc12
> 100 µM
CC1(C)N=C(C(=O)c2ccccc2)N(O)C1(O)c1ccccc1 (stereo not given)
> 100 µM

// next entry
Sample O=C(Nc1ccccc1O)c1ccc(CNC(=O)c2sccc2Nc2ccnc(C(F)(F)F)c2)cc1 — what was its TGI?
32.7 µM

----------
system: HOP-92 NSCLC; test: NCI tumour cell line growth inhibition, 48 h; in the data active means GI50 below about 0.43 µM; inactive means the rest
The reply should name one outcome from true (active), false (inactive)

# example entries with known answers
CC(C)(C)OC(=O)CN1CCc2c(sc3ncnc(N/N=C/c4cccc5ccccc45)c23)C1
false
C1=C(c2ccccc2)C(c2ccc(OCCN3CCCCC3)cc2)Oc2ccccc21 (configuration not stated)
false
COc1cc2cc(Oc3ccc(NC(=O)Nc4ccc(Cl)c(C(F)(F)F)c4)cc3)c(C)nc2cc1OC
false
[C-]#[N+][C@]12C(=O)[C@H](CCC1(C)C)C(C)(C)[C@H]1C(=O)N(C)c3cccc2c31
false
CNC(=O)OC1C(O[C@H]2C[C@H]3[C@@H]4CC=C5C[C@@H](O)CC[C@]5(C)[C@H]4CC[C@]3(C)[C@H]2[C@H](C)C(=O)CCC(C)C)OCC(O)C1OC1OCC(O)C(O)C1OC(=O)c1ccc(OC)cc1 (some centres not stated)
true

Dear colleague, could you share the recorded outcome for C[C@]12C3CC[C@@]4(CO)C[C@]3(CCC1[C@](C)(C(=O)O)CC[C@@H]2O)CC4=O (some centres not stated) when you have a moment?
false

Also need COc1cc(NCc2ccccc2O)c2ncccc2c1 , thanks.
false

----------
Quick reference: TGI of the listed items.
tested on: UACC-62 melanoma; assay: NCI tumour cell line growth inhibition, 48 h

The following molecules have reported results that may help.
CCCCCCC#CC#Cc1cccc(=O)o1
2.86 µM
O=c1c2ccccc2nc(-c2ccccc2)n1O
> 100 µM
CCCCCCCCCCCCCC(=O)C(C)N (stereo not given)
10.4 µM
Cc1ccc2c(c1)O/C(=C\c1ccc([N+](=O)[O-])o1)C2=O
3.5 µM
COc1cc2ccc1OCc1cccc(n1)COc1ccc(cc1OC)C=Nc1ccc(cc1)-c1ccc(cc1)N=C2
> 100 µM
COC(=O)OCc1ccc2c(c1)C(=O)c1c-2n(CCCBr)c(=O)c2cc([N+](=O)[O-])ccc12
> 100 µM
C1=C(c2ccccc2)C(c2ccc(OCCN3CCCCC3)cc2)Oc2ccccc21 (stereo not given)
3.68 µM
CCc1cccc(C(C)CC)c1NC(=O)C(=O)C(CC(=O)Nc1ccc(Cl)c(Cl)c1)C(=O)OC (stereo not given)
18.9 µM

I have this molecule here, O=C(Cn1c2ccc(Br)cc2c2nc3ccccc3nc21)N/N=C/c1ccccc1 , and I need its recorded TGI.
> 100 µM

Could you do the same for C[C@]12C3CC[C@@]4(CO)C[C@]3(CCC1[C@](C)(C(=O)O)CC[C@@H]2O)CC4=O (stereo not given in full) , please?
> 100 µM

----------
system: DMS 273 small cell lung; test: NCI tumour cell line growth inhibition, 48 h
measured_quantity: TGI

CCCCCC(O)(CCCCC)CCCCCCCCC1=C(O)c2[nH]c(=O)ccc2C(=O)C1=O
12.6 µM
CC1CCP(=O)(c2ccccc2)CC1 (stereo unspecified)
> 100 µM

Name the reported TGI value associated with the compound N#CC(C(=N/NC(N)=S)/C(=N/NC(N)=S)C(C#N)c1ccc(Cl)cc1)c1ccc(Cl)cc1 (stereo unspecified)
> 100 µM

And COc1ccc(N2C(=O)[C@@H]3[C@H](C2=O)c2[nH]c4ccccc4c2C2CCC(C(C)(C)C)C[C@@H]23)cc1 (stereo partly specified) ?
> 77.9 µM

What do you have for CC(CN1CCN(CC(C)Nc2ccnc3cc(Cl)ccc23)CC1)Nc1ccnc2cc(Cl)ccc12 (stereo unspecified) ?
29.8 µM

Check Cc1ccccc1NC(=O)CC(=O)N1N=C(N2c3ccccc3Sc3ccccc32)CC1c1ccccc1 (stereo unspecified) too.
> 100 µM

----------
Parameter: TGI. Scope: all listed entries.
system: U251 CNS; test: NCI tumour cell line growth inhibition, 48 h
The reply should contain only the number, in µM.

Worked examples follow.
O=c1oc2ccccc2c(O)c1C(c1ccc2c(c1)Cc1ccccc1-2)c1c(O)c2ccccc2oc1=O
60.3
COc1ccc(NS(=O)c2ccccc2OC)cc1 (stereo not given)
67.2
C[N+](C)(C)CC(=O)N/N=C(/CC1OC(=O)c2ccccc21)c1ccccc1O (stereo not given)
72.3
CCc1cccc(CC)c1NC(=O)C1=C(C)NC(C)=C(C(=O)Nc2c(CC)cccc2CC)C1c1ccc2c(c1)OCO2
27.4
CN1CCN(c2ccc(NC3=C(Cl)C(=O)c4ncccc4C3=O)cc2C#N)CC1
4.44
O=[N+]([O-])c1ccc2c(c1)nc(Cc1ccc(Cl)cc1)n2C[C@@H]1CCCN2CCCCC12 (stereo not given in full)
45.5

Which value of TGI has been reported for CCN(CC)Cc1cc(Nc2c3ccccc3nc3c4ccccc4n(C)c23)ccc1O in the records?
22.7

Now try CCN(CC)CCOc1ccc2c(c1)C(=O)c1cc(OCCN(CC)CC)ccc1-2 .
31.3

----------
system: SN12C renal; experiment: NCI tumour cell line growth inhibition, 48 h; in the data active = GI50 below about 0.43 µM; inactive = the rest
Permitted responses: 1 (active), 0 (inactive)

[C-]#[N+][C@]12C(=O)[C@H](CCC1(C)C)C(C)(C)[C@H]1C(=O)N(C)c3cccc2c31
0
COC(=O)OCc1ccc2c(c1)C(=O)c1c-2n(CCCBr)c(=O)c2cc([N+](=O)[O-])ccc12
0
CCCN1C(=O)CSC1=Nc1ccc2cc3ccc(N=C4SCC(=O)N4CCC)cc3nc2c1
0

For C/C1=C\C/C=C(\C)[C@H]2CC(CC/C(C)=C/CC1)[C@](C)(C=O)O2 , which call appears in the assay record?
0

Now the compound COc1cc2cc(Oc3ccc(NC(=O)Nc4ccc(Cl)c(C(F)(F)F)c4)cc3)c(C)nc2cc1OC
0

Can you handle C=CCC(N[C@H](CO)c1ccccc1)c1cn(S(=O)(=O)c2ccc(C)cc2)c2ccccc12 (stereo partly drawn) next?
0

And then C[C@@H](Oc1ccc2[nH]nc(/C=C/c3cnn(CCO)c3)c2c1)c1c(Cl)cncc1Cl , what is it?
1

Check O=C(O)c1cc(Cc2ccc(O)c(C(=O)O)c2)ccc1O (tested in a mixture with another compound) too.
0

----------
Listing of entries alongside the reported TGI.
system: CCRF-CEM leukemia; experiment: NCI tumour cell line growth inhibition, 48 h

N#C/C(N)=C(\C#N)N=Cc1csc2ccccc12
> 100 µM
COc1ccc([C@]23CCN(S(=O)(=O)c4ccc(C)cc4)[C@H]2[C@H](CO)C2(CC3)OCC(C)(C)CO2)cc1OC
> 100 µM
COc1ccc(CCNC(=O)CCc2ccccc2CO)cc1OC
> 100 µM
Cc1nc2ncn3c(c-2c1Cc1ccccc1)NC=C(O)N3
> 100 µM
O=[N+]([O-])c1ccc2c(c1)nc(Cc1ccc(Cl)cc1)n2C[C@@H]1CCCN2CCCCC12 (stereo partly drawn)
> 44.5 µM
O=S(=O)(NCCNc1cc(-c2cn(-c3ccccc3)nc2-c2cccc(O)c2)ccn1)c1ccc(Cl)cc1
28.6 µM
CC(=O)/C=C/C1=C(c2cccs2)c2ccccc2CC1
54.2 µM
Cn1c2ccccc2c2nc3ccccc3c(Cl)c21
> 100 µM
COc1cc(C2=NN(c3ccc(S(N)(=O)=O)cc3)C(c3ccc(Cl)cc3)C2)cc(OC)c1OC (stereo not drawn)
> 100 µM
O=c1c2ccccc2nc(-c2ccccc2)n1O
> 100 µM

// returns reported TGI for input CC1(C)CCCOc2cccc(c2)OCCCC(C)(C)C1=O
44.2 µM

Similarly, COc1ccc(CC(NC(=O)[C@H](C)NC(=O)CN2CCOCC2)C(=O)N[C@@H](Cc2ccccc2)C(=O)[C@@]2(C)CO2)cc1 (stereo partly drawn) ?
> 100 µM

# repeat for CC(C)(Oc1ccc2c(=O)cc(-c3ccccc3)oc2c1)C(=O)Nc1c(Cl)cccc1Cl
> 100 µM
